Test system: SK-MEL-2
Experiment: NCI tumour cell line growth inhibition, 48 h
The source made the active and inactive calls. Rule as the data show it: active = GI50 up to about 1.1 µM and inactive = higher.
Exercise: for every item that follows, state its recorded GI50.

Please state GI50 for every molecule in the list that follows.
1. C/C(=C1/N=C(c2ccccc2)OC1=O)c1cccs1
2. CCCCCCc1nn2c(-c3ccc(C)cc3)nnc2s1
3. CCOC(=O)Oc1ccc2c(c1)c(=O)c1c(NCCCN(CC)CC)ccc3nnn2c31

## Output
1: > 100 µM (inactive); 2: > 100 µM (inactive); 3: 16.2 µM (inactive)

###

System: UACC-62
Experiment: NCI tumour cell line growth inhibition, 48 h
Activity calls are given as the source filed them. Rule as the data show it: active = GI50 up to about 1.1 µM and inactive = higher.
Respond using exactly one of the listed classes: t = active, f = inactive

Some solved entries appear below for comparison.
Cc1ccc2cccc(OC(=O)c3cc4c(cc3Cl)Sc3nccn3S4(=O)=O)c2n1    f
O=S(=O)(CCCCl)SCCCCl    f
CC[C@@]1(O)C(=O)OCc2c1cc1n(c2=O)Cc2c-1nc1ccccc1c2/C=N\NC(=O)C(N)Cc1c[nH]cn1 (stereo partly specified)    t
CSC1(C(=O)O)C2CCC3C2CCC31 (stereo unspecified)    f
CSC(=S)N(C)c1nc(N(C)C)s[s+]1    f
COc1cc2cc(C(=O)N3CC(COS(C)(=O)=O)c4ccc(O)cc43)[nH]c2c(OC)c1OC (stereo unspecified)    t
COc1cc(O)c(Cc2ccccc2O)c(O)c1C(=O)CCc1ccccc1    f
CN(C)CC(NC(NCS)C(=O)NCCNc1ccc(NCCNC(=O)C(NCS)NC(CN(C)C)OCCl)c2c1C(=O)c1c(O)ccc(O)c1C2=O)OCCl (stereo unspecified)    t
Cc1cc(C)c2c(c1)CC1(Cc3c(C)ccc(C)c3C1=O)C2=O (stereo unspecified)    f
COc1ccc(-c2nc(SCC(=O)NNC(=S)Nc3ccccc3)[nH]c2-c2ccc(OC)cc2)cc1    f

## Input Status in this test for CN(C)CCNC(=O)c1ccc(C(=O)NCCN(C)C)c2nc3ccccc3cc12 ?
## Output f

## Input Status in this test for COC(=O)C1(C(=O)OC)CC(=O)c2cc3c(cc2-c2c(cc(OC)c(OC)c2OC)C1)OCO3 ?
## Output f

## Input Status in this test for S=C1CC(c2ccc(Cl)cc2)Sc2ccccc2N1 (stereo unspecified) ?
## Output f

## Input Status in this test for CCC1=NC(N/N=C/c2ccco2)=N/C1=C\c1ccco1 ?
## Output f

## Input Status in this test for O=S(=O)(CCBr)CCBr ?
## Output f

## Input Status in this test for Cc1cc2c(cc1Cl)SC(NNC1=NCCN1)=NS2(=O)=O ?
## Output f
